Data provenance: ChEMBL document CHEMBL1961873

# Measurement Target: Inhibitor of nuclear factor kappa-B kinase subunit beta (Homo sapiens) (UniProt O14920);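 also: reported as mean inhibition, from the GSK PKIS screening set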
# Sequence (whole entry): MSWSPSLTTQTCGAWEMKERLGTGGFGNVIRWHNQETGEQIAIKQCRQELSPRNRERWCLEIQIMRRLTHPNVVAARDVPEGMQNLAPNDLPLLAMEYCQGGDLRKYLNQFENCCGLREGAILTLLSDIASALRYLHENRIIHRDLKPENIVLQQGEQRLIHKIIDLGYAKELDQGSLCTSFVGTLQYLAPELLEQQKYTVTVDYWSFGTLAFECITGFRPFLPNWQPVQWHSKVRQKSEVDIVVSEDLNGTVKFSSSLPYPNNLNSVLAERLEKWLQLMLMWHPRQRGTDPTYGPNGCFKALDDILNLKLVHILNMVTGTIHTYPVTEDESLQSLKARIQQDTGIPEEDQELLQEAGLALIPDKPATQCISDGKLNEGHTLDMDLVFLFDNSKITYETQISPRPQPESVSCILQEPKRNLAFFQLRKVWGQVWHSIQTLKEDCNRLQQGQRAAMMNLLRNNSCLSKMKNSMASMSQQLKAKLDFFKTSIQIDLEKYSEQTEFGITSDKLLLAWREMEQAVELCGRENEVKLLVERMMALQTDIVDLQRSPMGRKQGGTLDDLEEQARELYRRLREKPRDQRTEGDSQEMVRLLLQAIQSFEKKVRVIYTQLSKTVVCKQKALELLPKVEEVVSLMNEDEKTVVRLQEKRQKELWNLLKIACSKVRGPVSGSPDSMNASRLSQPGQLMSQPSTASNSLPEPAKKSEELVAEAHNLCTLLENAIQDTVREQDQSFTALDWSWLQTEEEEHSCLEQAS
# Condition Summary: at 1 µM
Each entry below carries its reported inhibition.
Observable: inhibition (%)

COc1cccc(-n2cnc3c(N/N=C/c4ccncc4)ncnc32)c1; 3.32
NS(=O)(=O)c1ccc(N/N=C2\C(=O)Nc3ccc(C(=O)NCCCn4ccnc4)cc32)cc1; 14.7
Fc1ccc(-c2c(-c3ccncc3)nc3n2CCS3)cc1; 3.75
Fc1ccc(-c2ncn(C3CCNCC3)c2-c2ccnc(Oc3ccc4c(c3)OCO4)n2)cc1; 8.89
Cc1ccc(NC(=O)c2ccoc2)cc1-c1ccc(C(=O)NCC2CC2)cc1; 3.86
c1ccc(-c2n[nH]cc2-c2ccnc(-c3ccc(OCCN4CCOCC4)cc3)c2)nc1; -6.86
COc1ccc2cc(-c3c(-c4ccncc4)nc(-c4ccc(S(C)(=O)=O)cc4C)n3C)ccc2c1; 7.83
CCS(=O)(=O)c1ccc(OC)c(Nc2ncc(-c3cccc(-c4ccccc4F)c3)o2)c1; -1.42
CS(=O)(=O)CCNCc1cc(-c2cc3c(Nc4ccc(OCc5cccc(F)c5)c(Cl)c4)ncnc3s2)cs1; 6.76

====

# Measurement Target: Serine/threonine-protein kinase 26 (Homo sapiens);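 also: mean inhibition of MST4 kinase activity, reported from the GSK PKIS inhibitor-set screening panel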
# Condition Summary: at 1 µM
Observable: inhibition (%)

O=C(Nc1n[nH]c2nc(-c3ccco3)ccc12)C1CC1; 1.1
COc1cc(C)c(N(C)C(=O)CN(C)C)cc1Nc1nc(Nc2cccc(F)c2C(N)=O)c2cc[nH]c2n1; -1.63
Nc1nccc(-c2c(-c3ccc(F)cc3)ncn2C2CCC(O)CC2)n1 (stereo not given); 4.04
Cc1nnc(-c2ccc(C)c(-c3ccc(C(=O)NCc4ccc(Cl)cc4)cc3)c2)o1; 0.59
CN(C)c1ccc2c(c1)/C(=C/Nc1ccc(S(N)(=O)=O)cc1)C(=O)N2; 20.2
Fc1ccc(-c2ncn(C3CCNCC3)c2-c2ccnc(Oc3ccc(Oc4ccccc4)cc3)n2)cc1; 2.78
FC(F)(F)c1cccc(Nc2nccc(-c3cnn4nc(-c5ccccc5)ccc34)n2)c1; -3.24
Fc1ccc(-c2nc3n(c2-c2ccncc2)CCS3)cc1; -1.08
COc1cc2ncn(-c3cc(OCc4ccccc4C(F)(F)F)c(C(C)=O)s3)c2cc1OC; -1.77
c1ccc(-c2n[nH]cc2-c2ccnc(-c3ccc(OCCN4CCOCC4)cc3)c2)nc1; 2.93
NS(=O)(=O)c1ccc(Nc2cc(-c3ccc(O)c(F)c3)n[nH]2)cc1; 3.14
NC(=O)c1ccc(Oc2nccc(-c3c(-c4ccc(F)cc4)ncn3C3CCNCC3)n2)cc1; 2.28
COc1cccc(/C=N/Nc2ncnc3c2cnn3-c2cccc(OC)c2)c1; -1.93
c1ccc(Oc2ccc(Nc3ncc(-c4ccccc4)o3)cc2)cc1; 0.79
COc1ccc2ncn(-c3cc(O[C@H](C)c4ccccc4Cl)c(C(N)=O)s3)c2c1; -5.03
COC(=O)Nc1nc2ccc(Sc3ccc(NC(=O)Nc4cc(C(F)(F)F)ccc4F)cc3)cc2[nH]1; -1.61
COc1cc(Nc2ncc(-c3ccccc3)o2)cc(OC)c1OC; -4.83
NS(=O)(=O)c1ccc(N/N=C2\C(=O)Nc3ccc(-c4cnco4)cc32)cc1; 11.1
NC(=O)Cc1ccccc1Oc1nccc(-c2c(-c3ccc(F)cc3)ncn2C2CCNCC2)n1; -1.77
CN(c1ccc(NC(=O)Nc2c(Cl)cccc2Cl)cc1)c1ccnc(Nc2cccc(CS(C)(=O)=O)c2)n1; -3.71

====

# Measurement Target: Tyrosine-protein kinase TXK (Homo sapiens) (UniProt P42681);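 also: each listed value is a mean percent inhibition of TXK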
# Sequence (P42681 whole entry): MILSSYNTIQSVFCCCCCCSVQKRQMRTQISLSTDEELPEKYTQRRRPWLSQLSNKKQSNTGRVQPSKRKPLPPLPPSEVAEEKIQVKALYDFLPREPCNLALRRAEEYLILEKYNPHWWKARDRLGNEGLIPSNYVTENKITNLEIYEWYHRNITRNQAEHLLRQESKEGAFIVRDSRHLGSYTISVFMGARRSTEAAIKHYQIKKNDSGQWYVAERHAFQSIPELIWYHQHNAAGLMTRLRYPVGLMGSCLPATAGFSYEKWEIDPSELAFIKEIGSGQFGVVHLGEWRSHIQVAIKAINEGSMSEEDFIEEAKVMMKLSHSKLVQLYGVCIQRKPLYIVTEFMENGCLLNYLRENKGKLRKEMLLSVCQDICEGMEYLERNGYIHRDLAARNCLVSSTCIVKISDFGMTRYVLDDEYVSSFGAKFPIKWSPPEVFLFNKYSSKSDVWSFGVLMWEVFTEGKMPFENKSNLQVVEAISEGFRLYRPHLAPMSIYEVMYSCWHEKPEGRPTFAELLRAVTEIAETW
# Condition Summary: at 0.1 µM
Listed here are compounds together with their documented inhibition.
Observable: inhibition (%)

CNC(=O)c1cncc(/C=C/c2c(C)cccc2C)c1; 5.71
O=C(Nc1n[nH]c2cc(-c3ccccc3)ccc12)C1CC1; 8.18
CCc1nccc2c1nc(-c1nonc1N)n2CC; 3.63
NCc1ccc(-n2c(-c3nonc3N)nc3cnccc32)cc1; 1.78
N#Cc1ccc(Oc2nccc(-c3c(-c4ccc(F)cc4)ncn3C3CCNCC3)n2)cc1; -0.35
CN(C)c1ccc2c(c1)/C(=C/Nc1ccc(S(N)(=O)=O)cc1)C(=O)N2; 3.16
COc1cc2ncn(-c3cc(OCc4cccs4)c(C(N)=O)s3)c2cc1OC; 0.76
O=C(Nc1ccc(Oc2ccc3[nH]c(NC(=O)c4ccccc4)nc3c2)cc1)Nc1cc(C(F)(F)F)ccc1F; 3.06
O=C1Nc2ccc(I)cc2C1=Cc1cc(Br)c(O)c(Br)c1; 7.46
Fc1ccc(-c2ncn(C3CCNCC3)c2-c2ccnc(Oc3ccc(Oc4ccccc4)cc3)n2)cc1; 8.91
CCN(CC)Cc1ccc(Nc2nccc(-c3cnn4ncccc34)n2)cc1; 0.47
COc1ccc2ncn(-c3cc(O[C@H](C)c4ccccc4Cl)c(C(N)=O)s3)c2c1; -5.63

====

# Measurement Target: MAP kinase-interacting serine/threonine-protein kinase 2 (Homo sapiens) (UniProt Q9HBH9)
# Sequence (Q9HBH9 whole entry, looked up): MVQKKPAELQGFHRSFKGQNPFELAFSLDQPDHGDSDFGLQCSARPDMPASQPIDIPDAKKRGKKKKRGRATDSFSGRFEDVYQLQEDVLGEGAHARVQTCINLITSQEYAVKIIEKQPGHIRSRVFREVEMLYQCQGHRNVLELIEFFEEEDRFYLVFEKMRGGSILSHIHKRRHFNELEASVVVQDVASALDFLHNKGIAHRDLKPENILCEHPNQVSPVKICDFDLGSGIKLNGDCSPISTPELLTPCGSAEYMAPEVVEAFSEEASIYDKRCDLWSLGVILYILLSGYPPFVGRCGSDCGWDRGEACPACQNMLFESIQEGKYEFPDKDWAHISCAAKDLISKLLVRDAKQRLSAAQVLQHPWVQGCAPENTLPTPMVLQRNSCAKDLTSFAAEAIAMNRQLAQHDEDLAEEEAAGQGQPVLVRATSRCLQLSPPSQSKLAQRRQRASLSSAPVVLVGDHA
# Condition Summary: at 0.1 µM
# Description: GSK_PKIS: MNK2 mean inhibition at 0.1 uM [Nanosyn]
Collected inhibition values appear next to each entry.
Observable: inhibition (%)

Cc1ccc(NC(=O)c2ccoc2)cc1-c1ccc(C(=O)NCC2CC2)cc1; -0.05
CCc1nccc2c1nc(-c1nonc1N)n2CC; -0.46
NC(=O)c1ccc(Oc2nccc(-c3c(-c4ccc(F)cc4)ncn3C3CCNCC3)n2)cc1; 3.56
Cc1ccc(C(=O)NC(C)C)cc1-c1ccc(C(=O)NCC2CC2)cc1; -0.04
CCC(=O)Nc1ccc(C)c(-c2ccc(C(=O)NCC3CC3)cc2)c1; 0.52
CCS(=O)(=O)c1ccc(OC)c(Nc2ncc(-c3ccccc3Cl)o2)c1; 0.17
O=C(NCC1CC1)c1ccc(-c2cccc(C(=O)NC3CC3)c2)cc1; -1.06
O=C(Nc1ccc(Oc2ccc3[nH]c(NC(=O)c4ccccc4)nc3c2)cc1)Nc1cc(C(F)(F)F)ccc1F; 2.44
NS(=O)(=O)c1ccc(Nc2cc(-c3ccc(O)c(F)c3)n[nH]2)cc1; 0.26
CN(c1ccc(NC(=O)Nc2c(Cl)cccc2Cl)cc1)c1ccnc(Nc2cccc(CS(C)(=O)=O)c2)n1; 20.4

====

# Measurement Target: cAMP-dependent protein kinase catalytic subunit PRKX (Homo sapiens) (UniProt P51817);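 also: each value is the mean percent inhibition of the kinase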
# Sequence (whole entry): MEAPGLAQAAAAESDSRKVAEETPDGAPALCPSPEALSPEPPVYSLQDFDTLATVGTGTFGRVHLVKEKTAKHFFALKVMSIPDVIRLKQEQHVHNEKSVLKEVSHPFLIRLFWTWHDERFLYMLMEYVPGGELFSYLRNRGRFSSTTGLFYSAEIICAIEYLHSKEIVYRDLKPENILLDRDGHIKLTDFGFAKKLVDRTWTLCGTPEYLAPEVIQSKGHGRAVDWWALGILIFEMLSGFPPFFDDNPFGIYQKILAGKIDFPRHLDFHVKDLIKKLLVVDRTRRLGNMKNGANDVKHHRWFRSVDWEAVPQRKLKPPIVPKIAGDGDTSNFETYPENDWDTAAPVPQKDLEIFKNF
# Condition Summary: at 1 µM
The entries below are paired with their reported inhibition.
Observable: inhibition

CS(=O)(=O)CCNCc1cc(-c2cc3c(Nc4ccc(OCc5cccc(F)c5)c(Cl)c4)ncnc3s2)cs1; 2.04%
O=C(NCC1CC1)c1ccc(-c2cccc(C(=O)NC3CC3)c2)cc1; -0.06%
CCC(=O)Nc1ccc(C)c(-c2ccc(C(=O)NCC3CC3)cc2)c1; 1.66%
O=C(Nc1n[nH]c2cc(-c3cc(F)ccc3F)ccc12)C1CC1; 1.88%
NC(=O)Cc1ccccc1Oc1nccc(-c2c(-c3ccc(F)cc3)ncn2C2CCNCC2)n1; -1.31%
O=C(Nc1ccc(Oc2ccc3[nH]c(NC(=O)c4ccccc4)nc3c2)cc1)Nc1cc(C(F)(F)F)ccc1F; 1.09%
COc1cccc(/C=N/Nc2ncnc3c2cnn3-c2cccc(OC)c2)c1; 1.94%
COc1cc(Nc2ncc3c(C)nc(-c4cccc(C(F)(F)F)c4)n3n2)cc(OC)c1OC; 7.31%
c1ccc(Oc2ccc(Nc3ncc(-c4ccccc4)o3)cc2)cc1; 6.18%
C[C@@H](Oc1cc(-n2cnc3ccc(OCC4CCN(C)CC4)cc32)sc1C(N)=O)c1ccccc1Cl; -4.06%
CCN(CC)Cc1ccc(Nc2nccc(-c3cnn4ncccc34)n2)cc1; 4.27%
COc1ccc(C2=C(N3CCc4ccccc43)C(=O)NC2=O)cc1; 2.49%
NS(=O)(=O)c1ccc(N/N=C2\C(=O)Nc3ccc(C(=O)NCCCn4ccnc4)cc32)cc1; 7.39%
O=C1NC(=O)C(c2cccc(Cl)c2)=C1Nc1ccc(Cl)c(C(=O)O)c1; 2.74%
Cc1nnc(-c2ccc(C)c(-c3ccc(C(=O)NCc4ccc(Cl)cc4)cc3)c2)o1; 5.13%
Fc1ccc(-c2ncn(C3CCNCC3)c2-c2ccnc(Oc3ccc4c(c3)OCO4)n2)cc1; 2.4%
NC(=O)c1cc(-c2ccc(F)cc2)cc(-c2ccncc2)c1N; 3.07%
CS(=O)(=O)CCNCc1ccc(-c2ccc3ncnc(Nc4ccc(OCc5ccccc5)c(Br)c4)c3c2)o1; 2.64%
O=C(Nc1n[nH]c2nc(-c3ccco3)ccc12)C1CC1; 3.87%
COc1cc2ncn(-c3cc(OCc4ccccc4C(F)(F)F)c(C(C)=O)s3)c2cc1OC; 0.44%
